# ASSAY SYSTEM: T1, biotinylated hBLyS-ECD (human, UniProt Q9Y275 134-285, biotinylated with Biotin-X-X-NHS (molar ratio 7:1), sites not stated)
# T1 construct: The hBLyS-ECD of Embodiment 1 after biotinylation (Embodiment 2); also called biotinylated immunogen; BLyS protein; not shown: His tag of the pCPC vector
# T1 sequence (Q9Y275 134-285): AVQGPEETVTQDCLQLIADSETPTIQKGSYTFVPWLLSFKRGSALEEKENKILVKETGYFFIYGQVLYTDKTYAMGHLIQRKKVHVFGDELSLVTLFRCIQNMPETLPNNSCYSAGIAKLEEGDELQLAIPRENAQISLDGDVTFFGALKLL
# RUN DESCRIPTION: ELISA, biotinylated hBLyS-ECD captured on streptavidin; antibody 66.7 nM
As shown below, each of these binders has a reported OD450 nm value.
READOUT NAME: OD450 nm

[[record]]
binder = "97A3C2H4 (antibody, V domains shown, Mouse hybridoma antibody purified on Protein G) VH: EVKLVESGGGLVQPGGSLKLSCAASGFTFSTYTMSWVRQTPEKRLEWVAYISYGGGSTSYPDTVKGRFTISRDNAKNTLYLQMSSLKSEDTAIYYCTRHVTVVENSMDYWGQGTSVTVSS VL: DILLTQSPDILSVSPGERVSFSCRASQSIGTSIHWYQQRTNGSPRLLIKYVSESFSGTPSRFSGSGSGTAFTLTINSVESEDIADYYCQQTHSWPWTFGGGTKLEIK"
readout_name = "OD450 nm"
numeric_value = 2.98

[[record]]
binder = "L9G7 (antibody, human IgG1, V domains shown) VH: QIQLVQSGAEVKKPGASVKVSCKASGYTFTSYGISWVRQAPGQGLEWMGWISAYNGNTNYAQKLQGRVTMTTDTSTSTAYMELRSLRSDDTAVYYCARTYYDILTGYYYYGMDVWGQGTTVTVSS VL: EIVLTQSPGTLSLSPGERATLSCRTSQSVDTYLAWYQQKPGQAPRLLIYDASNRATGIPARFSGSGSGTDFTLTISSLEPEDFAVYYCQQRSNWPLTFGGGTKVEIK"
readout_name = "OD450 nm"
numeric_value = 1.81

